Taken from patent US20250277029A1.

Reported n = 2 IC50 (nM), cAMP antagonist assay values are given for each entry in this list.
target: human cannabinoid receptor 1 (huCB1), full length, expressed on cells (human, UniProt P21554 1-472); experiment: cell-based or functional assay
Sequence (P21554 whole entry): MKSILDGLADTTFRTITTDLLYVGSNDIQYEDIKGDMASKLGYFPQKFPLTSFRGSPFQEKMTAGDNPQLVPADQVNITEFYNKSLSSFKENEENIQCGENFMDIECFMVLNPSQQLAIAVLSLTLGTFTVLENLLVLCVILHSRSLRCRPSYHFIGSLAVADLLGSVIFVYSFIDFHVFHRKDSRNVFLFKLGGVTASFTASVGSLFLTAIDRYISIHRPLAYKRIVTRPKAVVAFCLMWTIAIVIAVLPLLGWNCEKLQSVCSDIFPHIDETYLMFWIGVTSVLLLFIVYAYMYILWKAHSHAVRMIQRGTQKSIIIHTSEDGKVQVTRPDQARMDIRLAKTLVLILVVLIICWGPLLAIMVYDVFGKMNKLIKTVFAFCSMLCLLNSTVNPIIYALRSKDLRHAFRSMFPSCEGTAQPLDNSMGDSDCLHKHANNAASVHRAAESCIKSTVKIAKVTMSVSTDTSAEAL

Incoming: So what does the record say about n = 2 IC50 (nM), cAMP antagonist assay for LIBC527879-1 (antibody, V domains shown) VH: QVQLQESGPGLVKPSQTLSLTCTVSGGSIRRGGDYWGWIRQHPGKGLEWIGHIYQSGSTNYNPKLKSRATISVDTYKNQFSLKLSSVTAADTAVYYCARDYDIFTGYSYYYYGMDVWGQGTTVTVSS VL: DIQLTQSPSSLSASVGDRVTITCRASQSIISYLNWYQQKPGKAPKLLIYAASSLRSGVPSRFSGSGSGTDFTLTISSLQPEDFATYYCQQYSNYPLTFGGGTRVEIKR ?
Outgoing: 1.78 nM

Incoming: LIBC527912-1 (antibody, V domains shown) VH: QVQLQESGPGLVKPSQTLSLTCTVSGGSIRRGGDYWSWIRQHPGKGLEWIGYIYQTGQTKYNPNFEGRATISVNTYKNQFSLKLSSVTAADTAVYYCARDYDILTGYSYYYYGMDVWGQGTTVTVSS VL: DIQLTQSPSSLSASVGDRVTITCRASQSISSYLNWYQQKPGKAPKLLIYAASSLRSGVPSRFSGSGSGTDFTLTISSLQPEDFATYYCQQYSNYPLTFGGGTRVEIKR ?
Outgoing: 1.99 nM

Incoming: Now consider LIBC528131-1 (antibody, V domains shown) VH: QVQLQESGPGLVKPSQTLSLTCTVSGGSIRRGGDYWSWIRQHPGKGLEWIGHIYQTGQTAYNPNLEGRATISVNTYKNQFSLKLSSVTAADTAVYYCARDYDILTGYSYYYYGMDVWGQGTTVTVSS VL: EIVLTQSPATLSLSPGERATLSCRASQSVSSYLGWYQQKPGQAPRLLIYGASSRATGIPDRFSGSGSGTDFTLTISRLEPEDFAVYYCQQYGSSPRTFGQGTKVEIKR and answer again.
Outgoing: 1.83 nM
